The measured values listed here are drawn from paper PMC4430595.

test: Study B: plasma pharmacokinetics after single-dose i.v. telavancin 10 mg/kg in subjects with varying renal function
conditions-used: both, human, in vivo, iv, 10 mg/kg, CL (clearance), study B, single 1-h i.v. infusion telavancin 10 mg/kg; plasma; severe RI (eGFR 15 to 29 mL/min/1.73 m^2), n = 8; mean ± SD
parameter: clearance (mL/min/kg)
Numbers only, in mL/min/kg.

Exercise: Which clearance is reported for this molecule? CCCCCCCCCCNCCN[C@@]1(C)C[C@H](O[C@H]2[C@H](Oc3c4cc5cc3Oc3ccc(cc3Cl)[C@@H](O)[C@@H](NC(=O)[C@@H](CC(C)C)NC)C(=O)N[C@@H](CC(N)=O)C(=O)N[C@H]5C(=O)N[C@H]3C(=O)N[C@H](C(=O)N[C@H](C(=O)O)c5cc(O)c(CNCP(=O)(O)O)c(O)c5-c5cc3ccc5O)[C@H](O)c3ccc(c(Cl)c3)O4)O[C@H](CO)[C@@H](O)[C@@H]2O)O[C@@H](C)[C@H]1O
Solution: 0.108

----------
test: Study B: urinary excretion and renal clearance
conditions-used: both, human, in vivo, iv, 10 mg/kg, Ae0–∞% (percentage of the dose excreted in urine, extrapolated to infinity), normal renal function, mean ± SD
parameter: dose excreted (%)
Give bare numbers, in %.

Exercise: # lookup: dose excreted of CCCCCCCCCCNCCN[C@@]1(C)C[C@H](O[C@H]2[C@H](Oc3c4cc5cc3Oc3ccc(cc3Cl)[C@@H](O)[C@@H](NC(=O)[C@@H](CC(C)C)NC)C(=O)N[C@@H](CC(N)=O)C(=O)N[C@H]5C(=O)N[C@H]3C(=O)N[C@H](C(=O)N[C@H](C(=O)O)c5cc(O)c(CNCP(=O)(O)O)c(O)c5-c5cc3ccc5O)[C@H](O)c3ccc(c(Cl)c3)O4)O[C@H](CO)[C@@H](O)[C@@H]2O)O[C@@H](C)[C@H]1O [telavancin]
Solution: 62.7

----------
test: Study B: plasma pharmacokinetics after single-dose i.v. telavancin 10 mg/kg in subjects with varying renal function
conditions-used: both, human, in vivo, iv, 10 mg/kg, CL (clearance), study B, single 1-h i.v. infusion telavancin 10 mg/kg; plasma; mild RI (eGFR 60 to 89 mL/min/1.73 m^2), n = 13; mean ± SD
parameter: clearance (mL/min/kg)
One number for each entry, in mL/min/kg.

Exercise: # lookup: clearance of CCCCCCCCCCNCCN[C@@]1(C)C[C@H](O[C@H]2[C@H](Oc3c4cc5cc3Oc3ccc(cc3Cl)[C@@H](O)[C@@H](NC(=O)[C@@H](CC(C)C)NC)C(=O)N[C@@H](CC(N)=O)C(=O)N[C@H]5C(=O)N[C@H]3C(=O)N[C@H](C(=O)N[C@H](C(=O)O)c5cc(O)c(CNCP(=O)(O)O)c(O)c5-c5cc3ccc5O)[C@H](O)c3ccc(c(Cl)c3)O4)O[C@H](CO)[C@@H](O)[C@@H]2O)O[C@@H](C)[C@H]1O
Solution: 0.253
